This collection of values is drawn from ChEMBL document CHEMBL1134851.

Test system: THP-1
Assay: Cytotoxicity towards the acute monocytic leukemia cell line (THP-1)
Type: functional, cell-based
Settings: Homo sapiens
Threshold-based label: IC50 under 30 µM gives 1, IC50 not under 30 µM gives -1.

Lab log: compare recorded IC50 with 30 µM; is it strictly lower for O=C1OCC[C@H]2CCC[C@]3(CCC[C@@H]3CO)N12 ?
-1

IC50 under 30 µM? Item: O=C1OC[C@H]2CCC[C@]23CCC[C@H](CCO)N13
-1

Please determine if O=C1CCC[C@H]2CCC[C@]3(CCC[C@@H]3CO)N12 is below 30 µM in terms of IC50.
-1

Next:
Given the entry COC(=O)C1CC[C@H]2CCC[C@]3(CCC[C@@H]3CO)N2C1=O (some centres not stated) , would its reported IC50 be below 30 µM?
-1

Given N#CC1=CC[C@H]2CCC[C@]3(CCC[C@@H]3CO)N2C1=O , is recorded IC50 strictly lower than 30 µM?
-1

Regarding CCO/C(O)=C/C1=N[C@]2(CCC1)CCC[C@@H]2CO , kindly confirm whether its IC50 is beneath 30 µM.
-1

Hello, is IC50 of the following molecule strictly smaller than 30 µM? CC(C)(C)[Si](OC[C@H]1CCC[C@]12CCC[C@H](CCO)N2)(c1ccccc1)c1ccccc1
1

Please let me know if CC(C)(C)[Si](OC[C@H]1CCC[C@]12CCC[C@@H]1CCOC(=O)N12)(c1ccccc1)c1ccccc1 shows IC50 below 30 µM.
-1

Field: below-cutoff. Rule: recorded IC50 strictly less than 30 µM. Subject: COC(=O)C1=CC[C@H]2CCC[C@]3(CCC[C@@H]3CO[Si](c3ccccc3)(c3ccccc3)C(C)(C)C)N2C1=O
1

Is 30 µM strictly greater than the molecule's reported IC50? molecule: COC(=O)C1CC[C@H]2CCC[C@]3(CCC[C@@H]3CO[Si](c3ccccc3)(c3ccccc3)C(C)(C)C)N2C1=O (some centres not stated)
-1

Strictly below 30 µM: is that where IC50 of CCO/C(O)=C/C1=N[C@]2(CCC1)CCC[C@@H]2CO[Si](c1ccccc1)(c1ccccc1)C(C)(C)C sits?
-1
